# System Name: Sodium-dependent dopamine transporter (Homo sapiens)
# Sequence (Q01959 whole entry): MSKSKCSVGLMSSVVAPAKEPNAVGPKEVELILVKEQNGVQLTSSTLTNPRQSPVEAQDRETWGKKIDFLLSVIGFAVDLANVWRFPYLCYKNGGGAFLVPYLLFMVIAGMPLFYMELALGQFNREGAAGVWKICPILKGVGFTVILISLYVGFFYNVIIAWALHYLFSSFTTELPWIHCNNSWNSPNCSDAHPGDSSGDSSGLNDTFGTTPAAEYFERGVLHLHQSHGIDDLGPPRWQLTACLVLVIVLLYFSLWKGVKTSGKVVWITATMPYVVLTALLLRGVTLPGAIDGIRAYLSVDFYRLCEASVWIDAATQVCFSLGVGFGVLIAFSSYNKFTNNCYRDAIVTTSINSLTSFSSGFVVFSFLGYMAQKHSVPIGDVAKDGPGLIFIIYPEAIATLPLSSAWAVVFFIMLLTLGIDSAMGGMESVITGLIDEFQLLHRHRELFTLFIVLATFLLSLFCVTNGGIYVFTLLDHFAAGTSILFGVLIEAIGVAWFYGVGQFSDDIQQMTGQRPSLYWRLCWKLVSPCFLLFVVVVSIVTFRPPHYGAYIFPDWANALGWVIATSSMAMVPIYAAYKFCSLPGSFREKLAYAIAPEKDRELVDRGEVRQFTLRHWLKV
# Measurement Notes: Inhibition of [3H]dopamine uptake at human dopamine transporter expressed in mouse N2A cells by scintillation counting
Listing: IC50 of selected compounds
Report only the number, with the unit nM understood.

Sample records with IC50:
- Compound: "CCCC(C(=O)c1ccc(N)c(I)c1)N1CCCC1 (centres undefined)"
  System Name: "Sodium-dependent dopamine transporter (Homo sapiens)"
  Recorded Result: 175
- Compound: "CCCC(C(=O)c1ccc(C)cc1)N1CCCC1 (centres undefined)"
  System Name: "Sodium-dependent dopamine transporter (Homo sapiens)"
  Recorded Result: 32
- Compound: "CCCC(C(=O)c1ccc(N)cc1)N1CCCC1 (centres undefined)"
  System Name: "Sodium-dependent dopamine transporter (Homo sapiens)"
  Recorded Result: 7

Consider now this further compound.
IN: Could you tell me which IC50 is on file for CCCC(C(=O)c1ccc(N=[N+]=[N-])c(I)c1)N1CCCC1 (centres undefined) ?
OUT: 264
